Molecular target: IL-17RA/IL17RC dimerization induced by IL-17A (Homo sapiens)
Test: IL-17RA/IL17RC dimerization assay in response to IL-17A (PathHunter Cytokine Receptor Assay)
Assay type: cell-based
Conditions: IL-17A at EC80; read-out: IC50 in IL-17RA/IL7RC dimerization assay
Residues, ends and D or L forms follow the SMILES beside them.
testReadout: IC50

Measured IC50, CC[C@H](C)[C@H](NC(C)=O)C(=O)N[C@@H](Cc1c[nH]cn1)C(=O)N[C@@H](Cc1ccc(O)cc1)C(=O)N[C@H](C(=O)N[C@H](C(=O)N1CCC[C@H]1C(=O)N[C@@H](C)C(=O)N[C@@H](CC(=O)O)C(=O)N[C@@H](CC(C)C)C(=O)N[C@@H](Cc1c[nH]c2ccccc12)C(=O)N[C@@H](CC(=O)O)C(=O)N[C@@H](Cc1c[nH]c2ccccc12)C(=O)N[C@H](C(=O)N[C@@H](CC(N)=O)C(=O)N[C@@H](CCCCN)C(N)=O)[C@@H](C)CC)[C@@H](C)CC)[C@@H](C)O [SEQ ID NO: 172] (Ac-IHYTIPADLWDWINK-NH2) : < 10 µM

----------
Experiment: Permeability test across stratified human corneal epithelial cells
Type: in vitro ADME
Details: Permeability (Papp)
Residues, ends and D or L forms follow the SMILES beside them.
testReadout: Papp
Note: state the figure and append the unit.

Short answer for CC[C@H](C)[C@H](NC(=O)[C@@H](NC(=O)[C@@H](NC(=O)[C@H](Cc1c[nH]cn1)NC(=O)[C@@H](NC(C)=O)C(C)C)C(C)C)[C@@H](C)O)C(=O)N1CCC[C@H]1C(=O)N[C@@H](C)C(=O)N[C@@H](CC(=O)O)C(=O)N[C@@H](CC(C)C)C(=O)N[C@@H](Cc1c[nH]c2ccccc12)C(=O)N[C@@H](CCC(=O)O)C(=O)N[C@@H](Cc1c[nH]c2ccccc12)C(=O)N[C@@H](Cc1ccccc1)C(=O)N[C@@H](CCCNC(=N)N)C(=O)N[C@@H](CCCNC(=N)N)C(N)=O [SEQ ID NO: 121] (Ac-VHVTIPADLWEWFRR-NH2) : Papp was 47.1 ×10⁻⁶ cm/s

----------
Format: physicochemical
Settings: pH 7.8
Residues, ends and D or L forms follow the SMILES beside them.
testReadout: solubility

Example cases with answers are listed next.
CC[C@H](C)[C@H](NC(=O)[C@H](Cc1c[nH]c2ccccc12)NC(=O)[C@H](CCC(=O)O)NC(=O)[C@H](Cc1ccc(O)cc1)NC(=O)[C@H](CC(C)C)NC(=O)[C@H](CC(=O)O)NC(=O)[C@H](C)NC(=O)[C@@H]1CCCN1C(=O)[C@@H](NC(=O)[C@@H](NC(=O)[C@@H](NC(=O)[C@H](CCSC)NC(=O)[C@@H](NC(C)=O)C(C)C)C(C)C)[C@@H](C)O)[C@@H](C)CC)C(=O)N[C@@H](CC(N)=O)C(=O)N[C@@H](CCCCN)C(N)=O [SEQ ID NO: 16] (Ac-VMVTIPADLYEWINK-NH2)    > 10 mM
CC[C@H](C)[C@H](NC(=O)[C@@H](NC(=O)[C@H](Cc1ccccc1)NC(=O)[C@H](Cc1c[nH]cn1)NC(=O)[C@@H](NC(C)=O)C(C)C)[C@@H](C)O)C(=O)N1CCC[C@H]1C(=O)N[C@@H](C)C(=O)N[C@@H](CC(=O)O)C(=O)N[C@@H](CC(C)C)C(=O)N[C@@H](Cc1c[nH]c2ccccc12)C(=O)N[C@@H](CCC(=O)O)C(=O)N[C@@H](Cc1c[nH]c2ccccc12)C(=O)N[C@H](C(=O)N[C@@H](CCCNC(=N)N)C(=O)N[C@@H](CCCNC(=N)N)C(N)=O)C(C)C [SEQ ID NO: 112] (Ac-VHFTIPADLWEWVRR-NH2)    < 0.05 mM
CC[C@H](C)[C@H](NC(C)=O)C(=O)N[C@@H](Cc1c[nH]cn1)C(=O)N[C@H](C(=O)N[C@H](C(=O)N[C@H](C(=O)N1CCC[C@H]1C(=O)N[C@@H](C)C(=O)N[C@@H](CC(=O)O)C(=O)N[C@@H](CC(C)C)C(=O)N[C@@H](Cc1c[nH]c2ccccc12)C(=O)N[C@@H](CC(=O)O)C(=O)N[C@@H](Cc1c[nH]c2ccccc12)C(=O)N[C@H](C(=O)N[C@@H](CC(N)=O)C(=O)N[C@@H](CCCCN)C(N)=O)[C@@H](C)CC)[C@@H](C)CC)[C@@H](C)O)C(C)C [SEQ ID NO: 1, reference compound] (Ac-IHVTIPADLWDWINK-NH2)    > 10 mM

Shifting focus to the compound that follows.
Reported solubility for CC(=O)N[C@@H](CC(=O)O)C(=O)N[C@@H](CC(C)C)C(=O)N[C@@H](CO)C(=O)N[C@@H](C)C(=O)N[C@H](C(=O)N[C@H]1CSSC[C@@H](C(=O)N[C@@H](Cc2c[nH]cn2)C(N)=O)NC(=O)[C@H](CCC(=O)O)NC(=O)[C@@H]2CCCN2C(=O)[C@H](CC(=O)O)NC(=O)[C@H](Cc2c[nH]c3ccccc23)NC(=O)[C@@H]2CCCN2C(=O)[C@H](Cc2ccccc2)NC(=O)[C@H](C)NC(=O)[C@H](Cc2c[nH]c3ccccc23)NC1=O)C(C)C [SEQ ID NO: 41] was > 10 mM

----------
Target: IL-17RA/IL17RC dimerization induced by IL-17A (Homo sapiens, UniProt Q16552)
Sequence (Q16552 24-155): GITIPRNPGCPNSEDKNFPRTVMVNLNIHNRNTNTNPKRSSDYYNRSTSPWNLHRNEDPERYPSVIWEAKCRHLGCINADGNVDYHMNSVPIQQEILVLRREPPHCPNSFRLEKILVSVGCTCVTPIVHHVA
Experiment: IL-17RA/IL17RC dimerization assay in response to IL-17A (PathHunter Cytokine Receptor Assay)
Assay type: cell-based
Conditions: IL-17A at EC80; read-out: IC50 in IL-17RA/IL7RC dimerization assay
pIC50: −log10 of the molar value. Residues, ends and D or L forms follow the SMILES beside them.
Measured pIC50 of individual entries

CC[C@H](C)[C@H](NC(=O)[C@H](Cc1c[nH]c2ccccc12)NC(=O)[C@H](CCC(=O)O)NC(=O)[C@H](Cc1ccc(O)cc1)NC(=O)[C@H](CC(C)C)NC(=O)[C@H](CC(=O)O)NC(=O)[C@H](C)NC(=O)[C@@H]1CCCN1C(=O)[C@@H](NC(=O)[C@@H](NC(=O)[C@@H](NC(=O)[C@H](CCSC)NC(=O)[C@@H](NC(C)=O)C(C)C)C(C)C)[C@@H](C)O)[C@@H](C)CC)C(=O)N[C@@H](CCC(=O)O)C(=O)N[C@@H](CCC(=O)O)C(N)=O [SEQ ID NO: 18] (Ac-VMVTIPADLYEWIEE-NH2)    > 6.40
CC[C@H](C)[C@H](NC(C)=O)C(=O)N[C@@H](Cc1c[nH]cn1)C(=O)N[C@H](C(=O)N[C@H](C(=O)N[C@H](C(=O)N[C@H](C(=O)N[C@@H](C)C(=O)N[C@@H](CC(=O)O)C(=O)N[C@@H](CC(C)C)C(=O)N[C@@H](Cc1c[nH]c2ccccc12)C(=O)N[C@@H](CC(=O)O)C(=O)N[C@@H](Cc1c[nH]c2ccccc12)C(=O)N[C@H](C(=O)N[C@@H](CC(N)=O)C(=O)N[C@@H](CCCCN)C(N)=O)[C@@H](C)CC)C(C)C)[C@@H](C)CC)[C@@H](C)O)C(C)C [SEQ ID NO: 189] (Ac-IHVTIVADLWDWINK-NH2)    > 5.00
CC[C@H](C)[C@H](NC(C)=O)C(=O)N[C@@H](Cc1c[nH]cn1)C(=O)N[C@H](C(=O)N[C@H](C(=O)N[C@H](C(=O)N1CCC[C@H]1C(=O)N[C@@H](C)C(=O)N[C@@H](CC(=O)O)C(=O)N[C@@H](CC(C)C)C(=O)N[C@@H](Cc1c[nH]c2ccccc12)C(=O)N[C@@H](CC(=O)O)C(=O)N[C@@H](Cc1c[nH]c2ccccc12)C(=O)N[C@H](C(=O)N[C@@H](CC(N)=O)C(=O)N[C@@H](CCC(=O)O)C(N)=O)[C@@H](C)CC)[C@@H](C)CC)[C@@H](C)O)C(C)C [SEQ ID NO: 12, IHVTIPADLWDWINE] (Ac-IHVTIPADLWDWINE-NH2)    > 6.70

Bench note, IL-17RA/IL17RC dimerization induced by IL-17A (Homo sapiens, UniProt Q16552): CC[C@H](C)[C@H](NC(=O)[C@@H](NC(=O)[C@@H](NC(=O)[C@H](Cc1c[nH]cn1)NC(=O)[C@@H](NC(C)=O)C(C)C)C(C)C)[C@@H](C)O)C(=O)N1CCC[C@H]1C(=O)N[C@@H](C)C(=O)N[C@@H](CC(=O)O)C(=O)N[C@@H](CC(C)C)C(=O)N[C@@H](Cc1c[nH]c2ccccc12)C(=O)N[C@@H](CCC(=O)O)C(=O)N[C@@H](Cc1ccccc1)C(=O)N[C@H](C(=O)N[C@@H](CCCNC(=N)N)C(=O)N[C@@H](CCCNC(=N)N)C(N)=O)C(C)C [SEQ ID NO: 120] (Ac-VHVTIPADLWEFVRR-NH2) , pIC50 reads > 6.30

Item: CC[C@H](C)[C@H](NC(C)=O)C(=O)N[C@@H](Cc1c[nH]cn1)C(=O)N[C@H](C(=O)N[C@H](C(=O)N[C@H](C(=O)N[C@@H](CC(C)C)C(=O)N[C@@H](C)C(=O)N[C@@H](CC(=O)O)C(=O)N[C@@H](CC(C)C)C(=O)N[C@@H](Cc1c[nH]c2ccccc12)C(=O)N[C@@H](CC(=O)O)C(=O)N[C@@H](Cc1c[nH]c2ccccc12)C(=O)N[C@H](C(=O)N[C@@H](CC(N)=O)C(=O)N[C@@H](CCCCN)C(N)=O)[C@@H](C)CC)[C@@H](C)CC)[C@@H](C)O)C(C)C [SEQ ID NO: 188] (Ac-IHVTILADLWDWINK-NH2) | System: IL-17RA/IL17RC dimerization induced by IL-17A (Homo sapiens, UniProt Q16552) | pIC50: > 5.00
